The following compounds are listed with their measured solubility values.
# Procedure summary: Aqueous solubility estimation (OECD test #105) in 1 M supporting electrolytes
# Condition parameters: 1 M KOH supporting electrolyte prepared from MilliQ water, aqueous buffer, thermodynamic from solid, Solubility, 1 M KOH, room temperature
Measured parameter: solubility (mM)

INSERT INTO measurements (compound, measured_parameter, unit_tag, censor_symbol, experimental_result) VALUES
  ('O=C1C(O)=C(Cl)C(=O)C(O)=C1Cl', 'solubility', 'mM', '<', 10),
  ('O=C1C(O)=C(O)C(=O)C(O)=C1O [BQ(1,4)TH, Tetrahydroxy-1,4-benzoquinone]', 'solubility', 'mM', '<', 10),
  ('O=C(O)c1cnccn1', 'solubility', 'mM', '=', 900),
  ('O=C1C(Cl)=C(Cl)C(=O)c2c(O)ccc(O)c21', 'solubility', 'mM', '<', 10),
  ('O=C1C=C(O)C(=O)c2ccccc21 [NQ(1,4)H, 2-hydroxy-1,4-naphtoquinone]', 'solubility', 'mM', '=', 820),
  ('O=C1c2cccc(S(=O)(=O)[O-])c2C(=O)c2cccc(S(=O)(=O)[O-])c21.[Na+].[Na+]', 'solubility', 'mM', '<', 10),
  ('CC(C)=CCC1=C(O)C(=O)c2ccccc2C1=O', 'solubility', 'mM', '=', 700),
  ('O=C1C=C(S(=O)(=O)O)c2ccccc2C1=O [NQ(1,2)S, 1,2-naphtoquinone-4-sulfonate sodium]', 'solubility', 'mM', '=', 900);

---

# Procedure summary: Cyclic voltammetry: formal redox potential, peak current ratio, electrochemical reversibility
# Assay type: physicochemical
# Condition parameters: pH 7
Measured parameter: Peak current ratio

INSERT INTO results (molecule, measured_parameter, experimental_result) VALUES
  ('O=C1c2cccc(O)c2C(=O)c2c(O)cc(CO)cc21 [AQDH(1,8)MH]', 'Peak current ratio', '0.51(4)'),
  ('O=C1c2ccccc2C(=O)c2c1ccc(O)c2O [AQDH(1,2), 1,2-dihydroxy-9,10-anthraquinone]', 'Peak current ratio', '0.5(1)'),
  ('O=C1c2ccccc2C(=O)c2c(O)ccc(O)c21 [AQDH(1,4), 1,4-dihydroxy-9,10-anthraquinone]', 'Peak current ratio', '0.4(2)'),
  ('O=C1C(O)=C(Cl)C(=O)C(O)=C1Cl [BQ(1,4)DHDCl, 2,5-dichloro-3,6-1,4-benzoquinone]', 'Peak current ratio', '1.2(4)'),
  ('O=C1C=C(S(=O)(=O)O)c2ccccc2C1=O [NQ(1,2)S, 1,2-naphtoquinone-4-sulfonate sodium]', 'Peak current ratio', '0.52(3)'),
  ('O=C1c2cccc(S(=O)(=O)[O-])c2C(=O)c2cccc(S(=O)(=O)[O-])c21.[Na+].[Na+] [AQDS(1,5)]', 'Peak current ratio', '0.49(3)'),
  ('Oc1c(F)c(F)c(O)c(F)c1F [HQ(1,4)TF, 1,2,4,5-tetrafluoro-3,6-dihydroxybenzene]', 'Peak current ratio', '0.21(7)'),
  ('O=C1C=C(O)C(=O)C=C1O [BQ(1,4)DH, 2,5-dihydroxy-1,4-benzoquinone]', 'Peak current ratio', '1.1(2)');

---

# Procedure summary: pKa of the central (hydro)quinone groups estimated from the Pourbaix diagram
# Type: physicochemical
# Condition parameters: aqueous media, estimated from slope change in Pourbaix diagram, Fig. 5; read-out: pKa2 of the (hydro)quinone groups
The following compounds are listed with their measured pKa values.
Measured parameter: pKa

INSERT INTO assay_data (compound, experimental_result) VALUES
  ('O=C1c2cccc(O)c2C(=O)c2c(O)cccc21 [AQDH(1,8), 1,8-dihydroxy-9,10-anthraquinone]', '> 13'),
  ('O=C1c2ccc(O)cc2C(=O)c2ccc(O)cc21 [AQDH(2,6), 2,6-dihydroxy-9,10-anthraquinone]', '> 13'),
  ('O=C1c2ccc(S(=O)(=O)O)cc2C(=O)c2cc(S(=O)(=O)O)ccc21', 10);
